Each entry below carries its reported Total protein in CSF.
tested on: blood brain barrier; assay: Rabbit meningitis model: CSF protein and lactate (blood brain barrier permeability); assay type: in vivo; details: 7 hours
Provide only the numeric value, understood in mg/mL.

Illustrative cases are given below, each with its answer.
RGDPHQGVLAQGDIIMDAKG [FHA Ca] = 1.69
GTLLLRNDALTENGTVTISA [FHA Cd] = 2.03
AADPHQGVLAQGDIIMDAKG [FHA Cc] = 1.90

Turning now to a further record.
// query Specify measured Total protein in CSF for RADPHQGVLAQGDIIMDAKG [FHA Cb] .
// result 2.28

* * *

tested on: blood brain barrier; test: Rabbit meningitis model: CSF protein and lactate (blood brain barrier permeability); format: in vivo; details: 10 μM peptides, 0.1 μM FHA
Reported Metric: protein influx into CSF and lactate generation (in words)

GYDTKQEDG [Factor X II, reference compound] = no significant reduction
LGYQAK [FHA Ia] = no significant reduction
